# Lookup of reported activity change, negative = inhibition keyed by entry
test: qHTS Assay for Lipid Storage Modulators (AID 1519); further: on the % scale 0 is the no-effect control and ±100 the full control effect
experimental conditions: Drosophila S3 cells, BODIPY lipid droplet/cell ratio, laser cytometry; at 57.5 µM (top of the series); cells loaded with oleic acid
Results filed as inconclusive are left out.
Report the figure in % without appending any unit label.

- smiles representation: "COCC(=O)N1CCC[C@@]2(CCN(C(=O)Nc3cccc(F)c3)C2)C1"
  activity change, negative = inhibition [%]: 2.12
- smiles representation: "COC(=O)N1CCC2(CC1)CN(C(c1ccccc1)c1ccccc1)C2"
  activity change, negative = inhibition [%]: -2.77
- smiles representation: "O=C(Nc1cccc(F)c1)N1CC[C@@]2(CCCNC2)C1"
  activity change, negative = inhibition [%]: 3.99
- smiles representation: "Cc1nc2cnc(Oc3cccc(Cl)c3)nc2n(CCC#N)c1=O"
  activity change, negative = inhibition [%]: 3.95
- smiles representation: "COc1ccc(NC(=O)N2CC3(CCN(C(C)=O)CC3)C2)cc1"
  activity change, negative = inhibition [%]: 3.83
- smiles representation: "Cc1cnc(CNc2ncncc2-c2ccccc2C#N)cn1"
  activity change, negative = inhibition [%]: 8.38
- smiles representation: "O=C(c1ccco1)N1CCC[C@@]2(CCN(c3ccccc3)C2)C1"
  activity change, negative = inhibition [%]: -7.59

Attention now turns to another entry.
Exam item: Could you please provide reported activity change, negative = inhibition for "COc1cccc(Nc2ncc3nc(C)c(=O)n(CCc4ccccc4)c3n2)c1" ? Thanks!
Marked response: -2.06
